Source of measurements: patent US20240343800A1

tested-on: T1, recombinant human ROR1 extracellular domain protein (human, UniProt Q01973 30-406)
T1 construct: also called Human/Cyno ROR1
test-details: biolayer interferometry, TCE immobilized
Could you please report measured Kd for the items listed next?

These solved cases illustrate the format of a correct answer.
binder	Kd
82H02 VL1.05 (bispecific TCE of Table 29) (bispecific antibody, V domains shown, also called 82H02 v1.05) VH: EVQLLESGGGLVQPGGSLRLSCAASGFTFTSYAMSWVRQAPGKGLEWVSTISGSGGGTYYTDSVKGRFTISRDNSKNTLYLQMNSLRAEDTAVYYCAQGSSIFDYWGQGTLVTVSS VL: EIVLTQSPATLSLSPGERATLSCRASQSVSSYLAWYQQKPGQAPRLLIYDASNRATGIPARFSGSGSGTDFTLTISSLEPEDFAVYYCQQRSNWPPLTFGQGTRLEIK	154 nM
82H02 VL1.09 (bispecific TCE of Table 29) (bispecific antibody, V domains shown, also called 82H02 v1.09) VH: EVQLLESGGGLVQPGGSLRLSCAASGFTFTSYAMSWVRQAPGKGLEWVSTISGSGGGTYYTDSVKGRFTISRDNSKNTLYLQMNSLRAEDTAVYYCAQGSSIFDYWGQGTLVTVSS VL: EIVLTQSPATLSLSPGERATLSCRASQSVSSYLAWYQQKPGQAPRLLIYDASNRATGIPARFSGSGSGTDFTLTISSLEPEDFAVYYCQQRSNWPPVTFGQGTRLEIK	160 nM

Here is the next item to consider.
Please report the recorded Kd for 82H02 VL1.02 (bispecific TCE of Table 29) (bispecific antibody, V domains shown, also called 82H02 v1.02) VH: EVQLLESGGGLVQPGGSLRLSCAASGFTFTSYAMSWVRQAPGKGLEWVSTISGSGGGTYYTDSVKGRFTISRDNSKNTLYLQMNSLRAEDTAVYYCAQGSSIFDYWGQGTLVTVSS VL: EIVLTQSPATLSLSPGERATLSCRASQSVSSYLAWYQQKPGQAPRLLIYDASNRATGIPARFSGSGSGTDFTLTISSLEPEDFAVYYCQQRSNWPPRTFGQGTRLEIK .
122 nM
